- Method description: protein stability index of a GFP-peptide fusion (yeast GPS) (PSI 1-4); higher = more stable; sorted into four equal gates, so the index is relative within each strain
- Condition: pdr5∆
Where protein stability index equals or exceeds 3, the correct label is T; where it does not, the label is F.

Prompt: Could you tell me if the measured protein stability index of CWAVRADVHFLDCDGGF [RRP45] reaches 3 or more?
Completion: F

Prompt: Quick check, protein stability index >= 3? PGRKYTTLGKLSTSVGW [RPL16A]
Completion: F

Prompt: For this sequence, is measured protein stability index 3 or higher? RALFETKLNLHCVIEDD [RRI1]
Completion: F

Prompt: Check this sequence for protein stability index at or above 3: SHLWEIDIPLDEQAFYN [RPC37]
Completion: F

Prompt: Answer whether protein stability index of SQIFDQLKDMQTIEMIT [SRB8] is greater than or equal to 3.
Completion: T

Prompt: Hi, just wondering whether KSAEGNNIDQSLILKES [YAR002W/NUP60] shows protein stability index of 3 or higher.
Completion: F

Prompt: Decide: protein stability index of LDPLARVSKDKKSGSLT [FAS2] >= 3?
Completion: T

Prompt: Reported protein stability index reaches at least 3 for RERDITSLFHKFILSGF [RRI2] ?
Completion: F

Prompt: Does the reported protein stability index for LIQLQNIFKAEMDSVSK [CSN9] fall at or above the 3 mark?
Completion: F

Prompt: I'd appreciate it if you could say whether ILKRDFELVSDLSYIEF [ECM29] has protein stability index at least equal to 3.
Completion: F

Prompt: API: above_or_equal(metric=protein stability index, cutoff=3) for item VCAKLFGNIQKVVNFWL [RPO21]
Completion: F

Prompt: Given the entry LNYGVYLNGTLIGSIRF [RET1] , answer whether its protein stability index meets or surpasses 3.
Completion: F

Prompt: Determine whether this sequence has protein stability index no lower than 3: PLIWQLLQSSIINKLIH [POP3]
Completion: F

Prompt: Please tell me: is the sequence GKIPTLKISLIQIFRAH [PRP8] at or over 3 in terms of protein stability index?
Completion: F

Prompt: Please check the record QAGVTKASVTIVFDNTD [SMC2] and state if its protein stability index is at or above 3.
Completion: F

Prompt: Quick check, protein stability index >= 3? EHFSDEETYEEKPQFKD [RPO26]
Completion: T

Prompt: protein stability index >= 3 for YYGCLENDHERGFFHLN [CSN12] ?
Completion: T

Prompt: Determine whether this sequence has protein stability index no lower than 3: MGVIKKKRSHHGKASRQ [SNF6]
Completion: T

Prompt: Determine whether measured protein stability index meets or exceeds 3 for GPSIYKTDPAGYYVGYK [SCL1]
Completion: T

Prompt: Evaluate TVIEGVKEESQPDENTK [SWI3] : protein stability index at minimum 3?
Completion: T

Prompt: Test whether the sequence ELPLEDFKAKYCDSMGR [RPB5] records protein stability index of 3 or higher.
Completion: T

Prompt: I'd appreciate it if you could say whether SIDCLLILILVISFGQP [SWI1] has protein stability index at least equal to 3.
Completion: F

Prompt: Answer whether protein stability index of IIVENSGTSGDEDVDVL [RPN2] is greater than or equal to 3.
Completion: T

Prompt: Does protein stability index meet or surpass 3 for CWLSSVDVNTQKSFEQL [RPN11] ?
Completion: F

Prompt: hey, is protein stability index for this one >= 3? NSTLKKVESQETLNDTI [YCS4]
Completion: F

Prompt: Tell me whether protein stability index is at least 3 here: QQPQTNTAPGLGNTVST [YGR119C/NUP57]
Completion: T
